Data provenance is paper PMC8701318.

assay: Cytotoxicity in MDCK cells by the MTT assay; details: dog
measurement.kind: viability at 62.5 µg/mL (%)
Answer format: numeric, % implied, no suffix.

Guide cases for viability at 62.5 µg/mL, answers given:
molecule	units	reported.result
C[C@@H]1O[C@@H](OC[C@H]2O[C@@H](Oc3c(-c4ccc(O)cc4)oc4cc(O)cc(O)c4c3=O)[C@H](O)[C@@H](O)[C@@H]2O)[C@H](O)[C@H](O)[C@H]1O [Compound 2, kaempferol 3-O-rutinoside]	%	86.5
C[C@@H]1O[C@@H](OC[C@H]2O[C@@H](Oc3c(-c4ccc(O)cc4)oc4cc(O)cc(O)c4c3=O)[C@H](O)[C@@H](O)[C@H]2O)[C@H](O)[C@H](O)[C@H]1O	%	83.6
C[C@@H]1O[C@@H](OC[C@H]2O[C@@H](Oc3c(-c4ccc(O)c(O)c4)oc4cc(O)cc(O)c4c3=O)[C@H](O[C@@H]3OCC(O)(CO)[C@H]3O)[C@@H](O)[C@@H]2O)[C@H](O)[C@H](O)[C@H]1O (some centres unmarked)	%	90
C[C@@H]1O[C@@H](OC[C@H]2O[C@@H](Oc3c(-c4ccc(O)c(O)c4)oc4cc(O)cc(O)c4c3=O)[C@H](O)[C@@H](O)[C@@H]2O)[C@H](O)[C@H](O)[C@H]1O	%	83.8

--- query ---
Qu. Requested read-out: viability at 62.5 µg/mL. Entry: C[C@@H]1O[C@@H](OC[C@H]2O[C@@H](Oc3c(-c4ccc(O)cc4)oc4cc(O)cc(O)c4c3=O)[C@H](O[C@@H]3OCC(O)(CO)[C@H]3O)[C@@H](O)[C@@H]2O)[C@H](O)[C@H](O)[C@H]1O (some centres unmarked)
Ans. 93.7

###

Form field: viability at 7.8 µg/mL (one value per entry).
test: Cytotoxicity in MDCK cells by the MTT assay; conditions: dog

compound	reported.result
C[C@@H]1O[C@@H](OC[C@H]2O[C@@H](Oc3c(-c4ccc(O)cc4)oc4cc(O)cc(O)c4c3=O)[C@H](O)[C@@H](O)[C@@H]2O)[C@H](O)[C@H](O)[C@H]1O [Compound 2, kaempferol 3-O-rutinoside]	96.3%
C[C@@H]1O[C@@H](OC[C@H]2O[C@@H](Oc3c(-c4ccc(O)c(O)c4)oc4cc(O)cc(O)c4c3=O)[C@H](O)[C@@H](O)[C@@H]2O)[C@H](O)[C@H](O)[C@H]1O [Compound 1, rutin]	97.8%

--- query ---
Qu. Requested read-out: viability at 7.8 µg/mL. Entry: C[C@@H]1O[C@@H](OC[C@H]2O[C@@H](Oc3c(-c4ccc(O)cc4)oc4cc(O)cc(O)c4c3=O)[C@H](O)[C@@H](O)[C@H]2O)[C@H](O)[C@H](O)[C@H]1O [Compound 3]
Ans. 92.8%

###

Form field: IC50 (one value per entry).
target: α-Glucosidase enzyme (Saccharomyces cerevisiae); assay: In-vitro α-glucosidase inhibitory assay (p-NPG substrate); conditions: read-out: α-Glucosidase Inhibitory Activity, IC50; mean ± s.d. of a triplicate experiment
Answer format: numeric, µM implied, no suffix.

molecule	units	reported.result
C[C@@H]1O[C@@H](OC[C@H]2O[C@@H](Oc3c(-c4ccc(O)cc4)oc4cc(O)cc(O)c4c3=O)[C@H](O[C@@H]3OCC(O)(CO)[C@H]3O)[C@@H](O)[C@@H]2O)[C@H](O)[C@H](O)[C@H]1O (stereo partly drawn)	µM	456
C[C@@H]1O[C@@H](OC[C@H]2O[C@@H](Oc3c(-c4ccc(O)cc4)oc4cc(O)cc(O)c4c3=O)[C@H](O[C@@H]3OCC(O)(CO)[C@H]3O)[C@@H](O)[C@H]2O)[C@H](O)[C@H](O)[C@H]1O (stereo partly drawn)	µM	432

Qu. Notebook entry, α-Glucosidase enzyme (Saccharomyces cerevisiae) assay: IC50 of C[C@@H]1O[C@@H](OC[C@H]2O[C@@H](Oc3c(-c4ccc(O)c(O)c4)oc4cc(O)cc(O)c4c3=O)[C@H](O[C@@H]3OCC(O)(CO)[C@H]3O)[C@@H](O)[C@@H]2O)[C@H](O)[C@H](O)[C@H]1O (stereo partly drawn) = ?
Ans. 431

###

Form field: viability at 125 µg/mL (one value per entry).
assay: Cytotoxicity in MDCK cells by the MTT assay; conditions: dog
Answer format: numeric, % implied, no suffix.

Guide cases for viability at 125 µg/mL, answers given:
compound	reported.result
C[C@@H]1O[C@@H](OC[C@H]2O[C@@H](Oc3c(-c4ccc(O)cc4)oc4cc(O)cc(O)c4c3=O)[C@H](O)[C@@H](O)[C@H]2O)[C@H](O)[C@H](O)[C@H]1O [Compound 3]	73.3
C[C@@H]1O[C@@H](OC[C@H]2O[C@@H](Oc3c(-c4ccc(O)cc4)oc4cc(O)cc(O)c4c3=O)[C@H](O[C@@H]3OCC(O)(CO)[C@H]3O)[C@@H](O)[C@@H]2O)[C@H](O)[C@H](O)[C@H]1O (stereo partly shown) [Compound 6]	89.5
C[C@@H]1O[C@@H](OC[C@H]2O[C@@H](Oc3c(-c4ccc(O)c(O)c4)oc4cc(O)cc(O)c4c3=O)[C@H](O)[C@@H](O)[C@@H]2O)[C@H](O)[C@H](O)[C@H]1O [Compound 1, rutin]	77.2

--- query ---
Qu. Requested read-out: viability at 125 µg/mL. Entry: C[C@@H]1O[C@@H](OC[C@H]2O[C@@H](Oc3c(-c4ccc(O)c(O)c4)oc4cc(O)cc(O)c4c3=O)[C@H](O[C@@H]3OCC(O)(CO)[C@H]3O)[C@@H](O)[C@@H]2O)[C@H](O)[C@H](O)[C@H]1O (stereo partly shown) [Compound 5]
Ans. 85.8
